From: ChEMBL document CHEMBL5058577

- Tested on: HEK-293T
- test.method.notes: Multiplex assay against HEK293T
- Type: toxicity, cell-based
- condition: human, 12 h, 10 µM, compound concentration 10 uM, replicate 2
measurement.type: Population Mitochondria Different-Phenotype (%)
Give bare numbers, in %.

Return reported Population Mitochondria Different-Phenotype (%) values for all items listed beneath this line.
1. N#Cc1c(Oc2cccc(OS(=O)(=O)CCCC(F)(F)F)c2)cccc1C(F)(F)F
2. COc1ccccc1N1CCN(C[C@@H](C(=O)NC(C)(C)C)c2ccccc2)CC1.Cl.Cl
3. COC[C@@H](c1ccc(C(F)(F)F)cc1)N1CCN(C2(C)CCN(C(=O)c3c(C)ncnc3C)CC2)C[C@@H]1C.O=C(O)/C=C\C(=O)O [VICRIVIROC MALEATE]

81
79
78
